Test system: A2058
Test: ATP luminescence proliferation assay, A2058
Assay type: cell-based, human
Conditions: ATP luminescence, A2058, 48 h incubation; read-out: EC50 A2058 (48 h)
Experimental: This example generally describes the procedures used to assay the antiproliferative activity of compounds of this invention or their conjugates. […] The ^3H thymidine plates were pulsed with 1.0 μCi of ^3H-thymidine per well for the last 24 hours of the total incubation period, harvested, and read on a Top Count Scintillation Counter (Packard Instruments, Meriden, Conn.). […] Table 3 provides the data for the ATP luminescence proliferation assays, with an incubation period of 48, 72, or 96 h, as noted.
Reported Metric: EC50

What does the record list as EC50 for CC[C@H](C)[C@H](NC(=O)[C@H]1CCCCN1C)C(=O)N(C)[C@H](C[C@@H](OC(C)=O)c1nc(C(=O)N[C@@H](Cc2ccc(N)cc2)C(=O)O)cs1)C(C)C ?
> 100 nM

How about this compound: CC[C@H](C)[C@H](NC(=O)[C@H]1CCCCN1C)C(=O)N(COC)[C@H](C[C@@H](OC)c1nc(C(=O)N[C@@H](Cc2ccccc2)C(=O)OC)cs1)C(C)C [Compound 29c]
32 nM

Query CC[C@H](C)[C@H](NC(=O)[C@H]1CCCCN1C)C(=O)N(C)[C@H](C[C@@H](OC)c1nc(C(=O)N[C@@H](Cc2ccccc2)C(=O)OC)cs1)C(C)C next
30 nM

----------
system: PC3; assay: ATP luminescence proliferation assay, PC3; type: cell-based, human; conditions: Homo sapiens, PC-3; ATP luminescence, PC3, 48 h incubation; read-out: EC50 PC3 (48 h)
Reported Metric: pEC50
pEC50 is defined as minus the log10 of a concentration measured in mol/L.

Form field: pEC50 recorded for Nc1ccc(C(=O)Nc2ccc3[nH]c(C(=O)N4C[C@@H](CCl)c5c4cc(O)c4ccccc54)cc3c2)cc1 [CBI, reference compound] with PC3 (enter value)
7.92

Please do the same for COc1cccc2c1C(=O)c1c(O)c3c(c(O)c1C2=O)C[C@@](O)(C(=O)CO)C[C@@H]3O[C@H]1C[C@H](N)[C@H](O)[C@H](C)O1 [Dox, doxorubicin, reference compound] as well.
5.97

----------
tested on: MDA-MB-231; assay: ATP luminescence proliferation assay, MDA-MB-231; type: cell-based, human; conditions: ATP luminescence, MDA-MB-231, 72 h incubation; read-out: EC50 MDA-MB-231 (72 h)
Exercise: state measured EC50 for each of the compounds provided.
Reply numerically in nM, unit not repeated.

Test system MDA-MB-231; read-out EC50; what value for CC[C@H](C)[C@H](NC(=O)[C@H]1CCCCN1C)C(=O)N(COC(=O)CC(C)C)[C@H](C[C@@H](O)c1nc(C(=O)N[C@@H](Cc2ccccc2)C(=O)OC)cs1)C(C)C ?
16

Further, for CC[C@H](C)[C@H](NC(=O)[C@H]1CCCCN1C)C(=O)N(COC(=O)CC(C)C)[C@H](C[C@@H](OC(C)=O)c1nc(C(=O)N[C@@H](Cc2ccccc2)C(=O)OC)cs1)C(C)C ?
5.1

What do we get for CC[C@H](C)[C@H](NC(=O)[C@H]1CCCCN1C)C(=O)N(COC(=O)CC(C)C)[C@H](C[C@@H](OC(C)=O)c1nc(C(=O)N[C@@H](Cc2ccccc2)C[C@H](C)C(=O)O)cs1)C(C)C [Tub D, tubulysin D, reference compound] ?
0.047

Note, next up: CCC[C@H](NC(=O)[C@H](Cc1ccccc1)NC(=O)c1csc([C@@H](C[C@H](C(C)C)N(C)C(=O)[C@@H](NC(=O)[C@H]2CCCCN2C)[C@@H](C)CC)OC)n1)C(=O)OC
32

----------
Give EC50 for every item shown.
test system: NCI-H460; test: ATP luminescence proliferation assay, NCI-H460; assay type: cell-based, human; conditions: Homo sapiens, NCI-H460, 48 h, read-out: EC50 NCI-H460 (48 h), ATP luminescence, NCI-H460, 48 h incubation
A number alone suffices; assume µM.

Which EC50 is listed for CCCC(NC(=O)c1csc([C@@H](C[C@H](C(C)C)N(C)C(=O)[C@@H](NC(=O)[C@H]2CCCCN2C)[C@@H](C)CC)OC)n1)C(=O)OC (some centres unmarked) ?
0.069

Next entry: CC[C@H](C)[C@H](NC(=O)[C@H]1CCCCN1C)C(=O)N(C)[C@H](C[C@@H](OC)c1nc(C(=O)NC(Cc2ccccc2)C[C@H](C)C(=O)O)cs1)C(C)C (some centres unmarked)
0.0067

----------
Could you please report measured EC50 for the items listed next?
tested on: ZR-75; test: 3H thymidine proliferation assay, ZR-75; type: cell-based, human; conditions: Homo sapiens, ZR75, read-out: EC50, ZR-75, 3H thymidine method, 72 h incubation
Number in nM, nothing else.

Look up EC50 for this compound: CC[C@H](C)[C@H](NC(=O)[C@H]1CCCCN1C)C(=O)N(C)[C@H](C[C@@H](OC)c1nc(C(=O)N[C@@H](Cc2ccccc2)C(=O)N[C@@H](C)C(=O)OC)cs1)C(C)C
3.6

# iterate: CC[C@H](C)[C@H](NC(=O)[C@H]1CCCCN1C)C(=O)N(COC(=O)CC(C)C)[C@H](C[C@@H](OC(C)=O)c1nc(C(=O)N[C@@H](Cc2ccc(N)cc2)CC(C)C(=O)O)cs1)C(C)C (stereo partly shown)
2.2

And for CC[C@H](C)[C@H](NC(=O)[C@H]1CCCCN1C)C(=O)N(C)[C@H](C[C@@H](OC)c1nc(C(=O)N[C@@H](C)C(=O)N[C@@H](Cc2ccccc2)C(=O)OC)cs1)C(C)C [Compound 26a] ?
56

----------
Kindly state EC50 for each of the entries shown.
tested on: Hep3B; assay: 3H thymidine proliferation assay, Hep3B; type: cell-based, human; conditions: Homo sapiens, Hep3B; 3H thymidine method, 72 h incubation; read-out: EC50, Hep3B
Answer in nM, number only, no unit symbol.

Tell me reported EC50 for COc1cccc2c1C(=O)c1c(O)c3c(c(O)c1C2=O)C[C@@](O)(C(=O)CO)C[C@@H]3O[C@H]1C[C@H](N)[C@H](O)[C@H](C)O1 [Dox, doxorubicin, reference compound] , tested with Hep3B.
44

Same lookup for Nc1ccc(C(=O)Nc2ccc3[nH]c(C(=O)N4C[C@@H](CCl)c5c4cc(O)c4ccccc54)cc3c2)cc1 [CBI, reference compound] , please.
0.02

----------
tested on: ZR-75; assay: ATP luminescence proliferation assay, ZR-75; format: cell-based, human; conditions: Homo sapiens, ZR75, 48 h, read-out: EC50 ZR-75 (48 h), ATP luminescence, ZR-75, 48 h incubation
Threshold check on EC50: strictly below 20 nM is Satisfied; on or above 20 nM is Not satisfied.

Is the reported EC50 for CC[C@H](C)[C@H](NC(=O)[C@H]1CCCCN1C)C(=O)N(C)[C@H](C[C@@H](OC(C)=O)c1nc(C(=O)N[C@@H](Cc2ccc(N)cc2)CC(C)C(=O)O)cs1)C(C)C (stereo partly shown) strictly below 20 nM?
Not satisfied

Similarly, CC[C@H](C)[C@H](NC(=O)[C@H]1CCCCN1C)C(=O)N(COC(=O)CC(C)C)[C@H](C[C@@H](OC(C)=O)c1nc(C(=O)N[C@@H](Cc2ccc(N)cc2)CC(C)C(=O)O)cs1)C(C)C (stereo partly shown) ?
Satisfied

Also CC[C@H](C)[C@H](NC(=O)[C@H]1CCCCN1C)C(=O)N(C)[C@H](C[C@@H](OC)c1nc(C(=O)N[C@@H](Cc2ccccc2)C(=O)N[C@@H](C)C(=O)OC)cs1)C(C)C , if possible.
Satisfied

Can you check CC[C@H](C)[C@H](NC(=O)[C@H]1CCCCN1C)C(=O)N(C)[C@H](C[C@@H](OC)c1nc(C(=O)NC(Cc2ccccc2)C[C@H](C)C(=O)O)cs1)C(C)C (stereo partly shown) next?
Satisfied

Can you check CC[C@H](C)[C@H](NC(=O)[C@H]1CCCCN1C)C(=O)N(C)[C@H](C[C@@H](OC)c1nc(C(=O)N[C@H](CC(=O)OC)Cc2ccccc2)cs1)C(C)C next?
Not satisfied

Record: CCCC(NC(=O)c1csc([C@@H](C[C@H](C(C)C)N(C)C(=O)[C@@H](NC(=O)[C@H]2CCCCN2C)[C@@H](C)CC)OC)n1)C(=O)OC (stereo partly shown)
Not satisfied

Proceed to CC[C@H](C)[C@H](NC(=O)[C@H]1CCCCN1C)C(=O)N(C)[C@H](C[C@@H](OC)c1nc(C(=O)N[C@H](CCC(=O)OC)Cc2ccccc2)cs1)C(C)C
Not satisfied

----------
test system: SW-480; test: ATP luminescence proliferation assay, SW-480; assay type: cell-based, human; conditions: ATP luminescence, SW480, 96 h incubation; read-out: EC50 SW480 (96 h)
Reported Metric: pEC50
Reminder that pEC50 is minus the log10 of a molar concentration.

So what's the measured pEC50 for this one? CC[C@H](C)[C@H](NC(=O)[C@H]1CCCCN1C)C(=O)N(COC(=O)CC(C)C)[C@H](C[C@@H](O)c1nc(C(=O)N[C@@H](Cc2ccccc2)C(=O)OC)cs1)C(C)C
7.44

Would you kindly repeat that for CC[C@H](C)[C@H](NC(=O)[C@H]1CCCCN1C)C(=O)N(COC)[C@H](C[C@@H](OC)c1nc(C(=O)N[C@@H](Cc2ccccc2)C(=O)OC)cs1)C(C)C [Compound 29c] ?
7.39

What about CC[C@H](C)[C@H](NC(=O)[C@H]1CCCCN1C)C(=O)N(C)[C@H](C[C@@H](OC)c1nc(C(=O)N[C@@H](Cc2ccccc2)C(=O)OC)cs1)C(C)C ?
7.32

Then what about the molecule CC[C@H](C)[C@H](NC(=O)[C@H]1CCCCN1C)C(=O)N(COC(=O)CC(C)C)[C@H](C[C@@H](OC(C)=O)c1nc(C(=O)N[C@@H](Cc2ccccc2)C(=O)OC)cs1)C(C)C ?
8.57

Also, CC[C@H](C)[C@H](NC(=O)[C@H]1CCCCN1C)C(=O)N(C)[C@H](C[C@@H](OC)c1nc(C(=O)N[C@@H](Cc2ccc(N)cc2)CC(C)C(=O)O)cs1)C(C)C (some centres unmarked) please.
7.89

CCC[C@H](NC(=O)[C@H](Cc1ccccc1)NC(=O)c1csc([C@@H](C[C@H](C(C)C)N(C)C(=O)[C@@H](NC(=O)[C@H]2CCCCN2C)[C@@H](C)CC)OC)n1)C(=O)OC , same question.
7.28

Next molecule up: CC[C@H](C)[C@H](NC(=O)[C@H]1CCCCN1C)C(=O)N(COC(=O)CC(C)C)[C@H](C[C@@H](OC(C)=O)c1nc(C(=O)N[C@@H](Cc2ccccc2)C[C@H](C)C(=O)O)cs1)C(C)C [Tub D, tubulysin D, reference compound]
10.70
